Molecular target: human C-terminal DNMT3A (a.a. 623-908) (Homo sapiens)
Construct: The human C-terminal DNMT3A (a.a. 623-908)
Assay: DNMT3A assay (restriction-based fluorescence)
Details: concentration range in triplicates
assay metric: pEC50
Please keep in mind that pEC50 is minus log10 of the molar concentration; only the number is needed.

| compound | pEC50 |
| --- | --- |
| c1ccc(CCCNc2ncnc3cc(OCCCNCCCNc4ccnc5ccccc45)ccc23)cc1 [Compound A] | 5.00 |

Incoming: Given O=c1c2ccc(OCC3CCN(CCNc4ccnc5ccccc45)CC3)cc2ncn1CCNc1ccnc2ccccc12 [Compound M] , report its pEC50 on human C-terminal DNMT3A (a.a. 623-908) (Homo sapiens).
Outgoing: 5.96

Incoming: Given Clc1cccc(CCNc2ncnc3cc(OCC4CCN(CCNc5ccnc6ccccc56)CC4)ccc23)c1 [AA] , report its pEC50 on human C-terminal DNMT3A (a.a. 623-908) (Homo sapiens).
Outgoing: 5.57

Incoming: Given CN(CCN1CCC(COc2ccc3c(NCCCc4ccccc4)ncnc3c2)CC1)c1ccnc2ccccc12 [AR] , report its pEC50 on human C-terminal DNMT3A (a.a. 623-908) (Homo sapiens).
Outgoing: 5.33

====

Biological target: His-DNMT1 (182 kDa, human) (Homo sapiens, UniProt P26358)
Construct: His; made in house
Sequence (P26358 whole entry): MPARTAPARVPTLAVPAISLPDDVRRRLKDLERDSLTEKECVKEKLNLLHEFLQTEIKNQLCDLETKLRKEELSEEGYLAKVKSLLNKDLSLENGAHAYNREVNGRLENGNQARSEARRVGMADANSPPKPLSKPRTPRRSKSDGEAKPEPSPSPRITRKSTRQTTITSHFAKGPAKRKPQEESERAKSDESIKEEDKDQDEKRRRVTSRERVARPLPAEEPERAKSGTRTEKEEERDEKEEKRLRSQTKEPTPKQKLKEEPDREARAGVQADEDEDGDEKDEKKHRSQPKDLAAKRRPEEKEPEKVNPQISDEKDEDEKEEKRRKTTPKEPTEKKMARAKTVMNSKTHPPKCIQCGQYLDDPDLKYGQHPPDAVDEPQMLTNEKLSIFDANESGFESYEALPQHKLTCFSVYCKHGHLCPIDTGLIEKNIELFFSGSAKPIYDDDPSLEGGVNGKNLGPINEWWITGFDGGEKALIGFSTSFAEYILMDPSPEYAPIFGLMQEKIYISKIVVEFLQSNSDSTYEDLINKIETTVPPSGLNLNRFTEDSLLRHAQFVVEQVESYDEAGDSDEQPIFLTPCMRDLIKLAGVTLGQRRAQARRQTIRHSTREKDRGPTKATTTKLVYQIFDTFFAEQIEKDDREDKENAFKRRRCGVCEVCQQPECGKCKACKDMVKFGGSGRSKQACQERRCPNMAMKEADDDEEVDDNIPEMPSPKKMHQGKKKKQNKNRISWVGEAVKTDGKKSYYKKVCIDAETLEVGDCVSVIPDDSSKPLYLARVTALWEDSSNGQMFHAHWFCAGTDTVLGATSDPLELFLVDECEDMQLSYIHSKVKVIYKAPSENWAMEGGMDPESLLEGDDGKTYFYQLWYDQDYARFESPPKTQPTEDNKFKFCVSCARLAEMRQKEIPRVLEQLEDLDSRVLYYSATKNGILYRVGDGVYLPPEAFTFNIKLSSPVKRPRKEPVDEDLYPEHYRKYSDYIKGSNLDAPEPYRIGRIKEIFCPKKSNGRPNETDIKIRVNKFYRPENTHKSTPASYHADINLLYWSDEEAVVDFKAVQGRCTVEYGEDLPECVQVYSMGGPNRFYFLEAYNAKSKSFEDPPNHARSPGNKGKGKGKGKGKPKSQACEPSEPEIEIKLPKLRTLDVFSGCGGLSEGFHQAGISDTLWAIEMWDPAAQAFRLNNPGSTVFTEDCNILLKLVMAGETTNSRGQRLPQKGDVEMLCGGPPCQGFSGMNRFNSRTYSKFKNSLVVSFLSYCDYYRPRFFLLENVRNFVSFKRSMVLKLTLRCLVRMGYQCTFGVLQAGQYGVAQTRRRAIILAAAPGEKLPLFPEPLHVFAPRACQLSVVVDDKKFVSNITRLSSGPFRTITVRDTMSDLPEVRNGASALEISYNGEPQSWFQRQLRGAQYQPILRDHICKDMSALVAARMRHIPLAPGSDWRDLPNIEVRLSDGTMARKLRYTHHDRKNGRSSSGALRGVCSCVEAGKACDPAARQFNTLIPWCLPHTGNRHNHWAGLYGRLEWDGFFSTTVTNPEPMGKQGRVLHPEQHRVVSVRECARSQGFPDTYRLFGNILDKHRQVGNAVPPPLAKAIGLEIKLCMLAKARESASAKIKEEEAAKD
Test: DNMT1 assay ([methyl-3H] SAM Flashplate)
Format: biochemical
Details: compound at 100 μM; read-out: DNMT1 (% of inhibition) 100 μM
Method: His-DNMT1 (182 kDa, human) was cloned, expressed and purified as described in Halby et al. (ChemBioChem 2012, 13, 157-65). […] The Flashplate™ was agitated at room temperature for 1 hour, washed three times with 200 μL of 0.05% Tween®-20 in 50 mM Tris-HCl pH 7.4, and read in 200 μL of 50 mM Tris-HCl pH 7.4 on TopCount NXT (PerkinElmer).
assay metric: inhibition at 100 µM (%)
I only need the number, in %, no unit after it.

Worked examples follow.
| molecule | assay metric | numeric value |
| --- | --- | --- |
| Clc1ccc(CCNc2ncnc3cc(OCC4CCN(CCNc5ccnc6ccccc56)CC4)ccc23)cc1 | inhibition at 100 µM | 97 |
| c1ccc(CCCNc2ncnc3cc(OCC4CCN(CCNc5ccncc5)CC4)ccc23)cc1 | inhibition at 100 µM | 33.7 |
| c1ccc(-c2ccc(CNc3ncnc4cc(OCC5CCN(CCNc6ccnc7ccccc67)CC5)ccc34)cc2)cc1 | inhibition at 100 µM | 69 |
| CCCNc1ncnc2cc(OCC3CCN(CCNc4ccnc5ccccc45)CC3)ccc12 | inhibition at 100 µM | 94.9 |
| Clc1cccc(CCNc2ncnc3cc(OCC4CCN(CCNc5ccnc6ccccc56)CC4)ccc23)c1 | inhibition at 100 µM | 97 |
| O=c1c2ccc(OCC3CCN(CCNc4ccnc5ccccc45)CC3)cc2ncn1CCCc1ccccc1 | inhibition at 100 µM | 98.4 |

Incoming: Given `Clc1ccccc1CCNc1ncnc2cc(OCC3CCN(CCNc4ccnc5ccccc45)CC3)ccc12` , report its inhibition at 100 µM on His-DNMT1 (182 kDa, human) (Homo sapiens, UniProt P26358).
Outgoing: 97

Incoming: Given `c1ccc(CCCNc2ncnc3cc(OCCCNCCCCNc4ccnc5ccccc45)ccc23)cc1` , report its inhibition at 100 µM on His-DNMT1 (182 kDa, human) (Homo sapiens, UniProt P26358).
Outgoing: 86

Incoming: Given `Nc1ccc(CCNc2ncnc3cc(OCC4CCN(CCNc5ccnc6ccccc56)CC4)ccc23)cc1` , report its inhibition at 100 µM on His-DNMT1 (182 kDa, human) (Homo sapiens, UniProt P26358).
Outgoing: 97

Incoming: Given `c1ccc2c(NCCNc3ncnc4cc(OCC5CCN(CCNc6ccnc7ccccc67)CC5)ccc34)ccnc2c1` , report its inhibition at 100 µM on His-DNMT1 (182 kDa, human) (Homo sapiens, UniProt P26358).
Outgoing: 99

Incoming: Given `c1ccc(CCCNc2ncnc3cc(OCCCNCCNc4ccnc5ccccc45)ccc23)cc1` , report its inhibition at 100 µM on His-DNMT1 (182 kDa, human) (Homo sapiens, UniProt P26358).
Outgoing: 90

Incoming: Given `O=c1c2ccc(OCC3CCN(CCNc4ccnc5ccccc45)CC3)cc2ncn1CCNc1ccnc2ccccc12` , report its inhibition at 100 µM on His-DNMT1 (182 kDa, human) (Homo sapiens, UniProt P26358).
Outgoing: 100

Incoming: Given `Cc1cc(NCCNc2ncnc3cc(OCC4CCN(CCNc5ccnc6ccccc56)CC4)ccc23)nc(N)n1` , report its inhibition at 100 µM on His-DNMT1 (182 kDa, human) (Homo sapiens, UniProt P26358).
Outgoing: 99.6

Incoming: Given `c1ccc(CCCNc2ncnc3cc(OCC4CCN(CCNc5ccnc6ccccc56)CC4)ccc23)cc1` , report its inhibition at 100 µM on His-DNMT1 (182 kDa, human) (Homo sapiens, UniProt P26358).
Outgoing: 91.2

Incoming: Given c1ccc(CCCNc2ncnc3cc(OCC4CCN(CCNc5ccnc6ccccc56)C4)ccc23)cc1 (centres unmarked) , report its inhibition at 100 µM on His-DNMT1 (182 kDa, human) (Homo sapiens, UniProt P26358).
Outgoing: 100

Incoming: Given `c1ccc(CNc2ncnc3cc(OCC4CCN(CCNc5ccnc6ccccc56)CC4)ccc23)cc1` , report its inhibition at 100 µM on His-DNMT1 (182 kDa, human) (Homo sapiens, UniProt P26358).
Outgoing: 22

Incoming: Given `c1ccc(CCCNc2ncnc3cc(OCCNc4ccnc5ccccc45)ccc23)cc1` , report its inhibition at 100 µM on His-DNMT1 (182 kDa, human) (Homo sapiens, UniProt P26358).
Outgoing: 90

====

Biological target: human C-terminal DNMT3A (a.a. 623-908) (Homo sapiens, UniProt Q9Y6K1)
Construct: The human C-terminal DNMT3A (a.a. 623-908); made in house
Sequence (Q9Y6K1 627-912 limits assumed): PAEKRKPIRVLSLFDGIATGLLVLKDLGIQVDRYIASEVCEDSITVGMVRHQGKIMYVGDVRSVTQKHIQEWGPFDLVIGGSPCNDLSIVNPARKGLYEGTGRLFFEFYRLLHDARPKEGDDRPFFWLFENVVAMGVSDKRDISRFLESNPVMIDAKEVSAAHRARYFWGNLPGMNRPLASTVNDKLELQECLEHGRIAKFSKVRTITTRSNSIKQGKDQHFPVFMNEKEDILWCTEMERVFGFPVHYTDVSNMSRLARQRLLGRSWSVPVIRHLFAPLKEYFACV
Assay: DNMT3A assay (restriction-based fluorescence)
Type: biochemical
Details: compound at 10 μM; read-out: DNMT3A (% of inhibition) 10 μM
In this section we review reported inhibition at 10 µM values for a set of molecules.
I only need the number, in %, no unit after it.

Worked examples follow.
| compound | inhibition at 10 µM (%) |
| --- | --- |
| c1ccc(CCNc2ncnc3cc(OCC4CCN(CCNc5ccnc6ccccc56)CC4)ccc23)cc1 | 80 |
| c1ccc(CCCNc2ncnc3cc(OCCNc4ccnc5ccccc45)ccc23)cc1 | 52 |

// switching to the query molecule
Incoming: Supply reported inhibition at 10 µM belonging to this molecule: `c1ccc(CN2CCC(Nc3ncnc4cc(OCC5CCN(CCNc6ccnc7ccccc67)CC5)ccc34)CC2)cc1`
Outgoing: 72

====

Biological target: human C-terminal DNMT3A (a.a. 623-908) (Homo sapiens, UniProt Q9Y6K1)
Construct: The human C-terminal DNMT3A (a.a. 623-908); made in house
Experiment: DNMT3A assay (restriction-based fluorescence)
Assay type: biochemical
Conditions: compound at 32 μM; read-out: DNMT3A (% of inhibition) 32 μM
In this section we review reported inhibition at 32 µM values for a set of compounds.
I only need the number, in %, no unit after it.

Incoming: Supply reported inhibition at 32 µM belonging to this compound: c1ccc(CNc2ncnc3cc(OCC4CCN(CCNc5ccnc6ccccc56)CC4)ccc23)cc1 [Compound P]
Outgoing: 81

====

Target: His-DNMT1 (182 kDa, human) (Homo sapiens, UniProt P26358)
Construct: His; made in house
Experiment: DNMT1 assay ([methyl-3H] SAM Flashplate)
Format: biochemical
Conditions: compound at 100 μM; read-out: DNMT1 (% of inhibition) 100 μM
Experimental: His-DNMT1 (182 kDa, human) was cloned, expressed and purified as described in Halby et al. (ChemBioChem 2012, 13, 157-65). […] The Flashplate™ was agitated at room temperature for 1 hour, washed three times with 200 μL of 0.05% Tween®-20 in 50 mM Tris-HCl pH 7.4, and read in 200 μL of 50 mM Tris-HCl pH 7.4 on TopCount NXT (PerkinElmer).
assay metric: inhibition at 100 µM (%)
I only need the number, in %, no unit after it.

Worked examples follow.
| compound | value units | inhibition at 100 µM |
| --- | --- | --- |
| c1ccc(NCCNc2ncnc3cc(OCC4CCN(CCNc5ccnc6ccccc56)CC4)ccc23)cc1 | % | 93 |
| NS(=O)(=O)c1ccc(CCNc2ncnc3cc(OCC4CCN(CCNc5ccnc6ccccc56)CC4)ccc23)cc1 | % | 100 |
| O=[N+]([O-])c1ccc(CCNc2ncnc3cc(OCC4CCN(CCNc5ccnc6ccccc56)CC4)ccc23)cc1 | % | 74 |
| c1ccc(CN2CCC(Nc3ncnc4cc(OCC5CCN(CCNc6ccnc7ccccc67)CC5)ccc34)CC2)cc1 | % | 81 |
| c1ccc(CCCNc2ncnc3cc(OCCCNCCCNc4ccnc5ccccc45)ccc23)cc1 | % | 97 |

Incoming: Supply reported inhibition at 100 µM belonging to this molecule: `c1ccc(CCNc2ncnc3cc(OCC4CCN(CCNc5ccnc6ccccc56)CC4)ccc23)cc1`
Outgoing: 98.4

Incoming: Supply reported inhibition at 100 µM belonging to this molecule: `Nc1ncnc2cc(OCC3CCN(CCNc4ccnc5ccccc45)CC3)ccc12`
Outgoing: 99.3

Incoming: Supply reported inhibition at 100 µM belonging to this molecule: `COc1ccc(CCNc2ncnc3cc(OCC4CCN(CCNc5ccnc6ccccc56)CC4)ccc23)cc1`
Outgoing: 59
